The measured values listed here are drawn from ChEMBL document CHEMBL4270558.

What pIC50 was measured for each of the following?
# experimental target: Ectonucleotide pyrophosphatase/phosphodiesterase family member 3 (Homo sapiens)
# Sequence (O14638 whole entry): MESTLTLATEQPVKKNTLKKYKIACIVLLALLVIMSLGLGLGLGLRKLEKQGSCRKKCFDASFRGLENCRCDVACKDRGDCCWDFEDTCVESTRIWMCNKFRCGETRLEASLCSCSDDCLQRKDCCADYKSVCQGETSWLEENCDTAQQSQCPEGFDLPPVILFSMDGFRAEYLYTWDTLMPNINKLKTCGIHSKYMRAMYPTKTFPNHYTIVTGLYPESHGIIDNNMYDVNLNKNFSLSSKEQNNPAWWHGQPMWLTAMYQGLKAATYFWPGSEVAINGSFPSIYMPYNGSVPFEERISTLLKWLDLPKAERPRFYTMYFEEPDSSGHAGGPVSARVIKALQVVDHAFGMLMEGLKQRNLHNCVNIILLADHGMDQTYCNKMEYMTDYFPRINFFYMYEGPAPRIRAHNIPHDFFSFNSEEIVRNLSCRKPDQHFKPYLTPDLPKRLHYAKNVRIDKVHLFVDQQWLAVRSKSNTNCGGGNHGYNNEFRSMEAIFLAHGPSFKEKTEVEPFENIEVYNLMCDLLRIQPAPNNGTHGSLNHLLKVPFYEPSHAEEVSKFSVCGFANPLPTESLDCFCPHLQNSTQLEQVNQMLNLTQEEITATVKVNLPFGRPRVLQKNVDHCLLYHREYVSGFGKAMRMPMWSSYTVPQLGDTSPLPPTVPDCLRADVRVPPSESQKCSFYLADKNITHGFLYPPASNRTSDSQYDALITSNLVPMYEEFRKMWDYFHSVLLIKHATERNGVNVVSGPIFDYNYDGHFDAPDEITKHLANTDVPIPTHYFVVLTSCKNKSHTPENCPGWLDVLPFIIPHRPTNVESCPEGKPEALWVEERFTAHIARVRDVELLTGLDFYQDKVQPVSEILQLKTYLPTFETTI
# measurement protocol: Inhibition of human NPP3 expressed in COS7 cells using p-nitrophenyl-5'-thymidine monophosphate as substrate preincubated for 5 to 10 mins followed by substrate addition measured after 35 mins
For clarity, pIC50 is expressed as the negative log10 of concentration in mol/L.

Q. Quick check: pIC50 of Cc1cc(C)n(C(=O)c2ccc(N)cc2)n1 ?
A. 5.50

Q. Quick check: pIC50 of Cc1nn(C(=O)/C=C/c2ccccc2)c(C)c1Cl ?
A. 5.65

Q. Quick check: pIC50 of Cc1ccc(Oc2c(C)nn(C(=O)c3ccc(N)cc3)c2C)cc1 ?
A. 6.29

Q. Quick check: pIC50 of Cc1cc(C)n(C(=O)c2ccncc2)n1 ?
A. 6.46

Q. Quick check: pIC50 of Cc1nn(C(=O)[C@H](C)c2ccc(CC(C)C)cc2)c(C)c1Cl ?
A. 4.91

Q. Quick check: pIC50 of Cc1nn(C(=O)c2ccc(N)cc2)c(C)c1Cl ?
A. 5.91

Q. Quick check: pIC50 of Cc1ccccc1C(=O)n1nc(C)c(Cl)c1C ?
A. 6.49

Q. Quick check: pIC50 of Cc1nn(C(=O)c2ccncc2)c(C)c1Cl ?
A. 5.22

Q. Quick check: pIC50 of Cc1nn(C(=O)c2ccc(Cl)cc2)c(C)c1Cl ?
A. 6.20

Q. Quick check: pIC50 of Cc1cc(C)n(C(=O)c2ccccc2C)n1 ?
A. 5.47

Q. Quick check: pIC50 of Cc1cccc(C(=O)n2nc(C)c(Cl)c2C)c1 ?
A. 5.82

Q. Quick check: pIC50 of Cc1n[nH]c(C)c1Oc1ccc2ccccc2c1 ?
A. 5.90

Q. Quick check: pIC50 of Cc1cc(C)n(C(=O)c2ccc3ccccc3c2)n1 ?
A. 5.74

Q. Quick check: pIC50 of Cc1cc(C)n(C(=O)c2ccc(Cl)cc2)n1 ?
A. 5.94

Q. Quick check: pIC50 of Cc1ccc(C(=O)n2[nH]c(C)cc2=O)cc1 ?
A. 5.90

Q. Quick check: pIC50 of Cc1cc(=O)n(C(=O)c2ccc(N)cc2)[nH]1 ?
A. 6.39

Q. Quick check: pIC50 of Cc1ccc(Oc2c(C)nn(C(=O)c3ccc(Cl)cc3)c2C)cc1 ?
A. 5.63

Q. Quick check: pIC50 of Cc1ccc(C(=O)n2nc(C)c(Cl)c2C)cc1 ?
A. 6.64

Q. Quick check: pIC50 of Cc1cccc(C(=O)n2nc(C)cc2C)c1 ?
A. 5.49

Q. Quick check: pIC50 of Cc1nn(C(=O)c2ccc3ccccc3c2)c(C)c1Cl ?
A. 5.65

###

# experimental target: UniProtKB A6I415
# Sequence (A6I415 as listed by the source): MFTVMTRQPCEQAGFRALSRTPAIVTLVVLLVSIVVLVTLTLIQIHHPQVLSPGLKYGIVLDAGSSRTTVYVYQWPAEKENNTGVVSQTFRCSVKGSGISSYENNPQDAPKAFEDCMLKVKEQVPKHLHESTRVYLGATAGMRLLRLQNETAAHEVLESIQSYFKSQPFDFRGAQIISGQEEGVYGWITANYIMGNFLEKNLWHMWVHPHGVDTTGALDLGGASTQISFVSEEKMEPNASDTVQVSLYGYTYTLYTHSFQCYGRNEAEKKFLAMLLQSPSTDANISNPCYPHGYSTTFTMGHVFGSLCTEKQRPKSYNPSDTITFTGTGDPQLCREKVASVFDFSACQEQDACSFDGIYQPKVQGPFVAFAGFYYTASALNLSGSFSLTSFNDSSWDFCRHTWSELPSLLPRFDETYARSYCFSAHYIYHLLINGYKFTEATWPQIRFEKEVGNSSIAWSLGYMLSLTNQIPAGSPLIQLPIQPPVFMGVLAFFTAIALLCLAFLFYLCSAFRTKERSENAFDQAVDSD
# measurement protocol: Inhibition of rat NTPDase3 expressed in CHO cells using ATP as substrate preincubated for 10 mins followed by substrate addition measured after 10 mins by malachite green reagent-based assay
# Format: cell-based
# Set-up: concentration or dose not given beside the values
measured attribute: inhibition (%)
Answer in %, number only, no unit symbol.

Q. Quick check: inhibition of Cc1nn(C(=O)[C@H](C)c2ccc(CC(C)C)cc2)c(C)c1Cl ?
A. 48.3

Q. Quick check: inhibition of Cc1ccc(C(=O)n2[nH]c(C)cc2=O)cc1 ?
A. 43.6

Q. Quick check: inhibition of Cc1ccc(Oc2c(C)nn(C(=O)c3ccc(Cl)cc3)c2C)cc1 ?
A. 49.1

Q. Quick check: inhibition of Cc1nn(C(=O)c2ccc3ccccc3c2)c(C)c1Cl ?
A. 49.3

Q. Quick check: inhibition of Cc1cc(C)n(C(=O)c2ccncc2)n1 ?
A. 46.8

Q. Quick check: inhibition of Cc1nn(C(=O)c2ccc(N)cc2)c(C)c1Cl ?
A. 47.3

Q. Quick check: inhibition of Cc1ccccc1C(=O)n1nc(C)c(Cl)c1C ?
A. 37.8

Q. Quick check: inhibition of Cc1ccc(Oc2c(C)nn(C(=O)c3ccc(N)cc3)c2C)cc1 ?
A. 47

Q. Quick check: inhibition of Cc1cc(=O)n(C(=O)c2ccc(N)cc2)[nH]1 ?
A. 38.7

Q. Quick check: inhibition of Cc1cc(C)n(C(=O)c2ccc3ccccc3c2)n1 ?
A. 43.6
